Cited source for all entries: ChEMBL document CHEMBL3526023

Target: UniProt P16662
Assay: Uncompetitive substrate inhibition of UGT2B7 in non-diabetic human liver microsomes assessed as reduction in enzyme-mediated mycophenolic acid phenolic 7-O-glucuronide formation by HPLC and LC-MS/MS method
Type: ADME
Property: Ki (nM)
Answer in nM, number only, no unit symbol.

Entry `COc1c(C)c2c(c(O)c1C/C=C(\C)CCC(=O)O)C(=O)OC2` : reported Ki = ?
1500

====

Target: UDP-glucuronosyltransferase 2B7 (Homo sapiens, UniProt P16662)
Test: Ratio of Vmax to Km in non-diabetic human kidney microsomes assessed as UGT2B7-mediated mycophenolic acid acyl glucuronide formation per pmol protein by HPLC and LC-MS/MS method
Assay type: ADME
Property: Vmax/Km (nL/min)
Provide the reading as a plain figure in nL/min.

Please state recorded Vmax/Km (tested on UDP-glucuronosyltransferase 2B7 (Homo sapiens, UniProt P16662)) of `COc1c(C)c2c(c(O)c1C/C=C(\C)CCC(=O)O)C(=O)OC2`
0.41

====

Biological target: UDP-glucuronosyltransferase 2B7 (Homo sapiens)
Sequence (P16662 whole entry): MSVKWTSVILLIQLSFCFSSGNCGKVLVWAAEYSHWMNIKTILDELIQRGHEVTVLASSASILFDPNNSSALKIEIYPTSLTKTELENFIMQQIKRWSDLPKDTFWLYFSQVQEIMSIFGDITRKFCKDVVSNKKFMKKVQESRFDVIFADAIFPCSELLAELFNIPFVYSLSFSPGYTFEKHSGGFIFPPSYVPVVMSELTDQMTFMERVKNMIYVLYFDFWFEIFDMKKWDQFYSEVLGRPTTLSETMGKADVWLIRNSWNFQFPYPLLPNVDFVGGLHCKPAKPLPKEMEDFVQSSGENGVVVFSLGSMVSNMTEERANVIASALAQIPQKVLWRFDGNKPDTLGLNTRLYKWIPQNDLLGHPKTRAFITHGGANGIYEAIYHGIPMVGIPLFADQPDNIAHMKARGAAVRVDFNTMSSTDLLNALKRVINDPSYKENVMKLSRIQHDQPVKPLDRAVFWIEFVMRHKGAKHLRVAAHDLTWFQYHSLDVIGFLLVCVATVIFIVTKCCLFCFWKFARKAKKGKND
Assay: Ratio of Vmax to Km in diabetic human kidney microsomes assessed as UGT2B7-mediated mycophenolic acid phenolic 7-O-glucuronide formation per pmol protein by HPLC and LC-MS/MS method
Format: ADME
Property: Vmax/Km (nL/min)
Answer format: numeric, nL/min implied, no suffix.

Provide value of Vmax/Km for this record tested with UDP-glucuronosyltransferase 2B7 (Homo sapiens): `COc1c(C)c2c(c(O)c1C/C=C(\C)CCC(=O)O)C(=O)OC2`
34.1

====

Molecular target: UDP-glucuronosyltransferase 2B7 (Homo sapiens)
Assay: Ratio of Vmax to Km in diabetic human liver microsomes assessed as UGT2B7-mediated mycophenolic acid phenolic 7-O-glucuronide formation per pmol protein by HPLC and LC-MS/MS method
Format: ADME
Property: Vmax/Km (nL/min)
Give the quantity in nL/min, number only.

Entry under review: COc1c(C)c2c(c(O)c1C/C=C(\C)CCC(=O)O)C(=O)OC2 [MYCOPHENOLIC ACID] . Reported Vmax/Km?
31.3

====

Biological target: UDP-glucuronosyltransferase 2B7 (Homo sapiens)
Test: Ratio of Vmax to Km in diabetic human kidney microsomes assessed as UGT2B7-mediated mycophenolic acid acyl glucuronide formation per pmol protein by HPLC and LC-MS/MS method
Format: ADME
Property: Vmax/Km (nL/min)
Provide only the numeric value, understood in nL/min.

// returns reported Vmax/Km for input `COc1c(C)c2c(c(O)c1C/C=C(\C)CCC(=O)O)C(=O)OC2`
0.12

====

Molecular target: UDP-glucuronosyltransferase 2B7 (Homo sapiens)
Assay: Uncompetitive substrate inhibition of UGT2B7 in diabetic human kidney microsomes assessed as reduction in enzyme-mediated mycophenolic acid phenolic 7-O-glucuronide formation by HPLC and LC-MS/MS method
Assay type: ADME
Property: pKi
On this scale, pKi is minus log10 of a concentration expressed in M (mol/L).

Quick one: pKi for `COc1c(C)c2c(c(O)c1C/C=C(\C)CCC(=O)O)C(=O)OC2` ?
5.82

====

Molecular target: UDP-glucuronosyltransferase 2B7 (Homo sapiens, UniProt P16662)
Assay: Uncompetitive substrate inhibition of UGT2B7 in diabetic human kidney microsomes assessed as reduction in enzyme-mediated mycophenolic acid acyl glucuronide formation by HPLC and LC-MS/MS method
Assay type: ADME
Property: Ki (nM)
Express it in nM; write the number only.

# get_value(readout= Ki, system= UDP-glucuronosyltransferase 2B7 (Homo sapiens, UniProt P16662)) for `COc1c(C)c2c(c(O)c1C/C=C(\C)CCC(=O)O)C(=O)OC2`
2000

====

Biological target: UDP-glucuronosyltransferase 2B7 (Homo sapiens)
Sequence (P16662 whole entry): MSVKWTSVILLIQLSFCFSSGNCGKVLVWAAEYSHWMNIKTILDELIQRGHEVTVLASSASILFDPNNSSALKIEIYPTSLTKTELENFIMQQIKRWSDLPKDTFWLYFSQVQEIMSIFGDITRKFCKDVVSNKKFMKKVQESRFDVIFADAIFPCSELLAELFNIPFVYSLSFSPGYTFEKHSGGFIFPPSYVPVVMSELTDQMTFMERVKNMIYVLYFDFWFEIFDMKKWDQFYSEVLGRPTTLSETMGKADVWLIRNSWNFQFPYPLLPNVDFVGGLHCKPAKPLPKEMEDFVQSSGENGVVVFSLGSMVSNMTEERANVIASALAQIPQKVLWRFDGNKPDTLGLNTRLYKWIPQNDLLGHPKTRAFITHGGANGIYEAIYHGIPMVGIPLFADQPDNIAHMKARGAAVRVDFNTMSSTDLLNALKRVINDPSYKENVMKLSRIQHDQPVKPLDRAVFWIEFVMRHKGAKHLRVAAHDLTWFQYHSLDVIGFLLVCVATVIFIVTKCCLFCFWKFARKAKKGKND
Assay: Ratio of Vmax to Km in non-diabetic human liver microsomes assessed as UGT2B7-mediated mycophenolic acid acyl glucuronide formation per pmol protein by HPLC and LC-MS/MS method
Format: ADME
Property: Vmax/Km
A complete answer gives the number and then names the unit.

Which Vmax/Km value belongs to `COc1c(C)c2c(c(O)c1C/C=C(\C)CCC(=O)O)C(=O)OC2` ?
4.08 nL/min

====

Molecular target: UDP-glucuronosyltransferase 2B7 (Homo sapiens, UniProt P16662)
Test: Uncompetitive substrate inhibition of UGT2B7 in non-diabetic human kidney microsomes assessed as reduction in enzyme-mediated mycophenolic acid phenolic 7-O-glucuronide formation by HPLC and LC-MS/MS method
Format: ADME
Property: pKi
pKi is a log-scale quantity: -log10 of the concentration expressed in molar.

Item COc1c(C)c2c(c(O)c1C/C=C(\C)CCC(=O)O)C(=O)OC2 [MYCOPHENOLIC ACID] has what recorded pKi?
5.82

====

Target: UDP-glucuronosyltransferase 2B7 (Homo sapiens, UniProt P16662)
Assay: Uncompetitive substrate inhibition of UGT2B7 in diabetic human liver microsomes assessed as reduction in enzyme-mediated mycophenolic acid acyl glucuronide formation by HPLC and LC-MS/MS method
Format: ADME
Property: Ki (nM)
Write the value in nM as a bare number.

Entry `COc1c(C)c2c(c(O)c1C/C=C(\C)CCC(=O)O)C(=O)OC2` has what Ki?
2000

====

Molecular target: UDP-glucuronosyltransferase 2B7 (Homo sapiens)
Experiment: Ratio of Vmax to Km in diabetic human liver microsomes assessed as UGT2B7-mediated mycophenolic acid acyl glucuronide formation per pmol protein by HPLC and LC-MS/MS method
Type: ADME
Property: Vmax/Km (nL/min)
# unit: nL/min | format: bare number

Give the measured Vmax/Km of COc1c(C)c2c(c(O)c1C/C=C(\C)CCC(=O)O)C(=O)OC2 [MYCOPHENOLIC ACID] .
1.51

====

Target: UDP-glucuronosyltransferase 2B7 (Homo sapiens, UniProt P16662)
Experiment: Ratio of Vmax to Km in non-diabetic human liver microsomes assessed as UGT2B7-mediated mycophenolic acid phenolic 7-O-glucuronide formation per pmol protein by HPLC and LC-MS/MS method
Type: ADME
Property: Vmax/Km (nL/min)
Form entry: value (nL/min) — number only.

Name the recorded Vmax/Km for COc1c(C)c2c(c(O)c1C/C=C(\C)CCC(=O)O)C(=O)OC2 [MYCOPHENOLIC ACID] .
22.9

====

Target: UDP-glucuronosyltransferase 2B7 (Homo sapiens, UniProt P16662)
Assay: Ratio of Vmax to Km in non-diabetic human kidney microsomes assessed as UGT2B7-mediated mycophenolic acid phenolic 7-O-glucuronide formation per pmol protein by HPLC and LC-MS/MS method
Assay type: ADME
Property: Vmax/Km (nL/min)
Field: numeric (nL/min). Do not append units.

Field request: Vmax/Km | item: COc1c(C)c2c(c(O)c1C/C=C(\C)CCC(=O)O)C(=O)OC2 [MYCOPHENOLIC ACID]
27.6
